Test system Cezanne 1 (Homo sapiens (Human), UniProt Q6GQQ9), IC50 listed for each of the molecules.

Some molecules with known IC50 results, for comparison:
N#CN1CCC(F)(C(=O)Nc2cc(-c3ccccc3)no2)C1 (stereo not drawn) = 100 to 1000 nM
N#CN1CCC(F)(C(=O)Nc2cccc(Oc3ccccc3)c2)C1 (stereo not drawn) = 1000 to 10000 nM

# ---- query molecule ----
Entry N#CN1CCC(F)(C(=O)Nc2cc(-c3cccc(-n4ccnc4)c3)no2)C1 (stereo not drawn) , system Cezanne 1 (Homo sapiens (Human), UniProt Q6GQQ9): what IC50 was measured?
100 to 1000 nM
